Tested on: A549/ATCC NSCLC
Experiment: NCI-60 one-dose screen, 48 h (100 = growth as untreated, 0 = no growth, -100 = all killed)
Details: 10 µM unless noted
Compounds without any hit were thinned out: in the full panel of roughly 83,000, 20% have a hit.
parameter_measured: growth (%)
Give bare numbers, in %.

Consider the following illustrative entries.
CC/C(=C(\c1ccc(O)cc1)c1ccc(OCCN(C)CCN(C)C(=O)CCCCC(=O)c2c(C)[nH]c(/C=C3\N=C(c4ccc[nH]4)C=C3OC)c2C)cc1)c1ccccc1 = 88.5
C/C(=C(/c1ccc(O)cc1)c1ccc(OCCN(C)C)cc1)c1ccccc1 = 72.4
O=S(=O)(NCCCNc1cc(-c2cn(-c3ccccc3)nc2-c2ccccc2)ccn1)c1ccc(C(F)(F)F)cc1 = 40.9
NS(=O)(=O)N(c1cc(C(F)(F)F)cc(C(F)(F)F)c1)C1CCN(Cc2ccc(F)cc2)CC1 = 66.5
CCOC(=O)C(=Cc1ccccc1F)C(=O)OCC = 90.3

Here are 4 compounds. What values of growth were reported for them?
1. COC(=O)C12C3C(=O)N(c4ccc(OC)cc4)C(=O)C3C(c3cn(-c4ccccc4)nc3C)N1[C@H](c1cn(-c3ccccc3)nc1C)[C@@H]1C(=O)N(c3ccc(OC)cc3)C(=O)[C@@H]12 (some centres undefined)
2. Nc1c(C(=O)Nc2cccc3c2OCCO3)sc2nc3c(cc12)C(=O)CCC3
3. C/C(Cc1ccc(Cl)cc1)=C(\c1ccc(OCCN2CCCCCC2)cc1)c1ccc(OC(=O)C2CCCCC2)cc1
4. COc1cc(OC)c(/C=C/S(=O)(=O)Cc2ccc(OC)c(N)n2)c(OC)c1

[100, 37.7, 66.5, 6.41]

###

Test system: CAKI-1 renal
Experiment: NCI-60 one-dose screen, 48 h (100 = growth as untreated, 0 = no growth, -100 = all killed)
Conditions: 10 µM unless noted
This is part of a sample that, as a whole, favours compounds with a hit. Of some 83,000 tested, about 20% had one in any assay.
parameter_measured: growth (%)
Answers are plain numbers, in %.

Cc1cc(Nc2nc(N3CCOCC3)nc3ccccc23)n[nH]1 = 9.88
ClC1=C2NC=NC2n2c(nnc2-c2ccc(Cl)cc2)N1 (stereo unspecified) = 98.8
CCOC(=O)c1cnc2cc(Cl)c(F)cc2c1Nc1cccc(NS(C)(=O)=O)c1 = 86.2
CCCCCCCCCCCCCCCC[N+]1(CC)CCCC1 = -41.8
Cc1cc(OCc2ccc(C(F)(F)F)cc2)c2c(c1)C(=O)C=C(NCCN1CCCC1)C2=O = 53.1
C=CCSc1nnc(-c2ccc(C(C)(C)C)cc2)n1-c1cccc(C(F)(F)F)c1 = 32.3
O=C1c2cccnc2C(=O)c2c1c(C(=O)OCCN1CCCCC1)c1ccccn21 = 2.16
CN1CCN(Cc2ccc(NC(=O)c3[nH]ncc3Nc3ncnc4[nH]ccc34)cc2)CC1 = -1.63

Here are 8 compounds. What values of growth were reported for them?
1. COCCOc1ccc(-c2nc3ccc(-c4nc5ccc(N6CCN(C)CC6)cc5[nH]4)cc3[nH]2)cc1
2. CCOC(=O)Cc1cnn(C)c1NC(=O)c1ccc(Cl)cc1NC(C)=O
3. COCCCN=C(N)c1ccc(NC(=O)c2ccc(C(=O)Nc3ccc(C(N)=NCCCOC)cc3)cc2)cc1
4. C/C(=C(/c1ccc(O)cc1)c1ccc(OCCN(C)C)cc1)c1ccccc1
5. COc1ccc(/C(=C/c2ccc3ccccc3c2)c2nn[nH]n2)cc1OC
6. O=C(CCCCN1CCOCC1)Nc1ccc(Cn2nnc3c2C(=O)c2nnn(Cc4ccc(NC(=O)CCCCN5CCOCC5)cc4)c2C3=O)cc1
7. O=C(CNC1C2CC3CC(C2)CC1C3)Sc1nnc2sc3ccccc3n12 (stereo unspecified)
8. O=C1NC(=O)C(CC(=O)n2c(-c3ccccc3)nc3ccccc32)C(=O)N1

68.6
64.8
95.2
84.9
23.3
7.17
76.4
90.5
